# Tested on: Saccharomyces cerevisiae
# protocolSummary: protein stability index of tFT-peptide fusion (C-terminal peptide) (PSI (0-1 scale)); higher = more stable (slower turnover)
# conditions: genetic background: das1 deletion; temperature: 30 C
Given measured protein stability index, output t if it is greater than or equal to 0.7 and f if not.

sequenceEntry | classAssignment
LKQTVESLIKEL [VPS51 C-terminal 12 aa] | f
FFPFITIIFFHS [YCR024C-B C-terminal 12 aa] | f
LLTAMSAQISFD [AAD16 C-terminal 12 aa] | t
IIQKETQSAGDK [PZF1 C-terminal 12 aa] | f
CAVDAIFYWLLM [GMC1 C-terminal 12 aa] | f
VGITSVGTRGNY [YNL140C C-terminal 12 aa] | f
PWFAPIREQIEK [CKA1 C-terminal 12 aa] | t

----------
# Test system: Saccharomyces cerevisiae
# protocolSummary: protein stability index of tFT-peptide fusion (C-terminal peptide) (PSI (0-1 scale)); higher = more stable (slower turnover)
# conditions: genetic background: wild type; temperature: 30 C

sequenceEntry | experimentalTarget | protein stability index
VLGFLGWPCSSS | Saccharomyces cerevisiae | 0.76
AAKQIPRYRTTG | Saccharomyces cerevisiae | 0.716
RWHLCERFGGRV | Saccharomyces cerevisiae | 0.643
GSVLRCFFRKGS | Saccharomyces cerevisiae | 0.692
LPLMVPIPLLLP | Saccharomyces cerevisiae | 0.648
APFRHKANEPGE | Saccharomyces cerevisiae | 0.706
TPPPHNRTKTTT | Saccharomyces cerevisiae | 0.682
SYNYMSIVMYRL | Saccharomyces cerevisiae | 0.587
PPHCPLVLPSLS | Saccharomyces cerevisiae | 0.67
PPPTPSGPHPAP | Saccharomyces cerevisiae | 0.672
PDTLCAYLSFGS | Saccharomyces cerevisiae | 0.776
WLVIWPRKLSTV | Saccharomyces cerevisiae | 0.481
FWGRAGVWRLKG | Saccharomyces cerevisiae | 0.334
PSPPRAPSTPLI | Saccharomyces cerevisiae | 0.744
RLTLAFQKRSPP | Saccharomyces cerevisiae | 0.668
GGPTCSSSCDPV | Saccharomyces cerevisiae | 0.67
SPSRPILRPRVV | Saccharomyces cerevisiae | 0.635
RGLSCAAYFSGA | Saccharomyces cerevisiae | 0.727
PPLFTAAPRRWS | Saccharomyces cerevisiae | 0.752

----------
# System: Saccharomyces cerevisiae
# protocolSummary: protein stability index of tFT-peptide fusion (C-terminal peptide) (PSI (0-1 scale)); higher = more stable (slower turnover)
# conditions: genetic background: das1 deletion; temperature: 30 C
Entry flag: TRUE if protein stability index reaches 0.4; FALSE if it does not.

sequenceEntry | experimentalTarget | classAssignment
FFLFILYFGSCF | Saccharomyces cerevisiae | FALSE
LRSPCALVLLLI | Saccharomyces cerevisiae | FALSE
WGCIFWFFDVRV | Saccharomyces cerevisiae | FALSE
FLSLSFLLLHFP | Saccharomyces cerevisiae | FALSE
VFRLLALLWRFF | Saccharomyces cerevisiae | TRUE
WGIPRRPTLFIP | Saccharomyces cerevisiae | TRUE
RLRWLSPMTHVG | Saccharomyces cerevisiae | TRUE
RSLSFGMVLCYS | Saccharomyces cerevisiae | FALSE
YMNLYKNVISVT | Saccharomyces cerevisiae | FALSE
FYFRSSFFTICF | Saccharomyces cerevisiae | FALSE
FFVYFFLLLFWF | Saccharomyces cerevisiae | FALSE
FFVFSFVLFFPL | Saccharomyces cerevisiae | FALSE
GGVWSAFAVWVC | Saccharomyces cerevisiae | FALSE
CALFLLSSPSPT | Saccharomyces cerevisiae | TRUE
SPLLPPPLLFLS | Saccharomyces cerevisiae | TRUE
GKWVWSSFVWFG | Saccharomyces cerevisiae | TRUE
FLVPLSPMLLSA | Saccharomyces cerevisiae | FALSE
SLRSLYLLARLS | Saccharomyces cerevisiae | TRUE
LVCLPVGFFLMW | Saccharomyces cerevisiae | TRUE
VYRRKLDRLLCI | Saccharomyces cerevisiae | TRUE
VCPWGYCSEWGF | Saccharomyces cerevisiae | TRUE
WVVVGWVGVGFR | Saccharomyces cerevisiae | FALSE
CFGFMFLLLFDV | Saccharomyces cerevisiae | FALSE
VCLFWLFLWRIL | Saccharomyces cerevisiae | FALSE
FFRLFAPLLVVL | Saccharomyces cerevisiae | FALSE
VFSLAFYLVLFF | Saccharomyces cerevisiae | FALSE
PHHSPPTGPPND | Saccharomyces cerevisiae | TRUE
VLYLQCITSAGH | Saccharomyces cerevisiae | FALSE
LSVYFSLSLCVS | Saccharomyces cerevisiae | FALSE
VGYHCIVGVIFL | Saccharomyces cerevisiae | FALSE
VIYNSALLLVRL | Saccharomyces cerevisiae | FALSE
FMCCFWFFWLGF | Saccharomyces cerevisiae | TRUE
CLLGMKSRTILV | Saccharomyces cerevisiae | FALSE
LSIGCRCLWGWF | Saccharomyces cerevisiae | TRUE
VLVSYAIVILYL | Saccharomyces cerevisiae | FALSE
SLVLLLLITFSL | Saccharomyces cerevisiae | FALSE
VSFRISAIFVCV | Saccharomyces cerevisiae | FALSE
VAIMSIWLVYML | Saccharomyces cerevisiae | FALSE
DGGHLVGHDLFY | Saccharomyces cerevisiae | TRUE

----------
# Tested on: Saccharomyces cerevisiae
# protocolSummary: protein stability index of tFT-peptide fusion (C-terminal peptide) (PSI (0-1 scale)); higher = more stable (slower turnover)
# conditions: genetic background: cdc34-1; temperature: 37 C
Classification scheme (protein stability index): lower level: < 0.2; middle level: ≥ 0.2 and < 0.5; upper level: ≥ 0.5

sequenceEntry | experimentalTarget | classAssignment
DFCCGVILTCVC | Saccharomyces cerevisiae | lower level
YSRFALRPQLLV | Saccharomyces cerevisiae | upper level
FRVFYSFLLCLS | Saccharomyces cerevisiae | lower level
FCLMLWGAVLFL | Saccharomyces cerevisiae | middle level
RSITFFPVCLVK | Saccharomyces cerevisiae | middle level
VFFLRVHFWSFF | Saccharomyces cerevisiae | middle level
FTEFWFFKQMSV | Saccharomyces cerevisiae | upper level
GTLVFTYLVLRC | Saccharomyces cerevisiae | lower level
LPTGLKTFLIAF | Saccharomyces cerevisiae | middle level
SPCFLDPPRLIS | Saccharomyces cerevisiae | upper level

----------
Known protein stability index of a selection of sequences
# Test system: Saccharomyces cerevisiae
# protocolSummary: protein stability index of tFT-peptide fusion (C-terminal peptide) (PSI (0-1 scale)); higher = more stable (slower turnover)
# conditions: genetic background: wild type; temperature: 37 C
measuredQuantity: protein stability index

sequenceEntry | measuredNumber
FLFFWRASLFFW | 0.191
KSEKTYTYQVIQ | 0.576
PTYTKYRTRQIN | 0.156
FCFFSMGFVLAL | 0.422
HFLRYCSWFGLL | 0.353
PPPPPSRPFSPP | 0.709
LCGYVGVVVCLV | 0.352
LRSPCALVLLLI | 0.441
FNLFWPVSAFVV | 0.398
AEIVCLTDGLLF | 0.707
VSPATFLFYFFF | 0.561
GRLVPVILLKLV | 0.0817
LGVVVGGVRGVG | 0.491
LVRDEVLKVKLV | 0.244
PPRSRPLLRPLP | 0.708
ASICAFFCWFLV | 0.497
AFFLLVSLLVSP | 0.186
FVVGFVCSMVWG | 0.227
SRPEPNGLRKLV | 0.315
PLRLRCASLFAN | 0.565
PFLSLPFLFPSS | 0.757
FWSARAVVWWCW | 0.574
GGMVRSCLWCFV | 0.585
VLGLYSLLLSFF | 0.453
KEKKKTKHNKIG | 0.314
FQPLELFFVCVF | 0.212
LHRLRFTLVQVS | 0.2
VLVVLVVCRRAE | 0.422
LSFLSLIFSICY | 0.474
LKCFLVLTFWFS | 0.3
PHHSPPTGPPND | 0.705
CGWVRRARVKMM | 0.226
LFPLFTLIFVHL | 0.17
FVVHPARYYLVL | 0.489
LLLFSFAALANF | 0.466
VPPGCSLFAFIL | 0.73
VLAFFPLFFFLS | 0.245
GVVCWLVVTGFL | 0.463
YYFCMYFKVTLC | 0.0707
APPLPFPTPPPS | 0.678
YVSIWSPILWLA | 0.0657

----------
# Tested on: Saccharomyces cerevisiae
# protocolSummary: protein stability index of tFT-peptide fusion (C-terminal peptide) (PSI (0-1 scale)); higher = more stable (slower turnover)
# conditions: genetic background: wild type; temperature: 30 C
Reported protein stability index values follow for various sequences

sequenceEntry | experimentalTarget | protein stability index
KGGEDGSLVSSN [NHP10 C-terminal 12 aa] | Saccharomyces cerevisiae | 0.709
KCLYVQVITKSN [ECM8 C-terminal 12 aa] | Saccharomyces cerevisiae | 0.256
CENANYRGAEVP [YIL175W C-terminal 12 aa] | Saccharomyces cerevisiae | 0.689
ELIEKLKEVKAI [CIR1 C-terminal 12 aa] | Saccharomyces cerevisiae | 0.34
FGIKKNDLKKSN [GSF2 C-terminal 12 aa] | Saccharomyces cerevisiae | 0.705
YQCSETSTPRNT [GIC1 C-terminal 12 aa] | Saccharomyces cerevisiae | 0.675
GLSDEEDSSEED [RRT14 C-terminal 12 aa] | Saccharomyces cerevisiae | 0.698
RLEQGSNGFMFA [NAM8 C-terminal 12 aa] | Saccharomyces cerevisiae | 0.699
YEEGESIFGSLF [REV7 C-terminal 12 aa] | Saccharomyces cerevisiae | 0.714
QVPEEDFPVVNY [DNL4 C-terminal 12 aa] | Saccharomyces cerevisiae | 0.718
QKYQVYKNFETL [UTR4 C-terminal 12 aa] | Saccharomyces cerevisiae | 0.688
PSYCSLRWSHRT [YLR169W C-terminal 12 aa] | Saccharomyces cerevisiae | 0.705
HYEAVRANFEGA [PEX6 C-terminal 12 aa] | Saccharomyces cerevisiae | 0.724
AHYNNGLQWFSD [EMC4 C-terminal 12 aa] | Saccharomyces cerevisiae | 0.728
DEQKHNENENSR [RPO21 C-terminal 12 aa] | Saccharomyces cerevisiae | 0.708
LRKRLSCYMLIL [YDR114C C-terminal 12 aa] | Saccharomyces cerevisiae | 0.411
KFLRYNPLEKRD [RPB10 C-terminal 12 aa] | Saccharomyces cerevisiae | 0.704
TNMSSVSAFISR [PTK2 C-terminal 12 aa] | Saccharomyces cerevisiae | 0.713
KQKKQQAQPLRK [VRG4 C-terminal 12 aa] | Saccharomyces cerevisiae | 0.673
QSFETVFAGQKP [MET17 C-terminal 12 aa] | Saccharomyces cerevisiae | 0.702
ENWIHVSCLSFM [LIN1 C-terminal 12 aa] | Saccharomyces cerevisiae | 0.65
RNWLGFCTKYEL [ATG15 C-terminal 12 aa] | Saccharomyces cerevisiae | 0.735
PKETLHRSDHQG [YPR039W C-terminal 12 aa] | Saccharomyces cerevisiae | 0.689
EGRGYQQIHKLS [YHR139C-A C-terminal 12 aa] | Saccharomyces cerevisiae | 0.253
DSFVEFWGRILY [PUL4 C-terminal 12 aa] | Saccharomyces cerevisiae | 0.662
